# Target Entity: Thromboxane A2 receptor (Homo sapiens)
# Sequence (P21731 whole entry): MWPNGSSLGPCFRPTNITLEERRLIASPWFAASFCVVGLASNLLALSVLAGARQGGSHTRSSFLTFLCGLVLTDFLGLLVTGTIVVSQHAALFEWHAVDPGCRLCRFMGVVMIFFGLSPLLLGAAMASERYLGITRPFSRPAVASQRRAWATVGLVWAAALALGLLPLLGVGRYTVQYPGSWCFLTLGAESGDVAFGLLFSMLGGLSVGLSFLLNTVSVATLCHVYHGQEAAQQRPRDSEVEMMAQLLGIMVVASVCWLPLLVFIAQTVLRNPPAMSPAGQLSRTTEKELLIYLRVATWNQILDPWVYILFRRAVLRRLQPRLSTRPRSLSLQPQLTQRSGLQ
# Assay Notes: Functional activity in RAT-1cells, transiently-transfected with human TP-receptor (% of control ligand, [3H]-U-46,619=50%)
Quantity Measured: EC50 (nM)
Answers are plain numbers, in nM.

Query: Form field: EC50 recorded for O=C(O)CCC/C=C\C[C@@H]1[C@@H](/C=C/[C@@H](O)CCc2cccc(C(F)(F)F)c2)[C@H](O)C[C@@H]1O with Thromboxane A2 receptor (Homo sapiens) (enter value)
Reply: 2100

----------
# Target Entity: Prostaglandin E2 receptor EP1 subtype (Homo sapiens, UniProt P34995)
# Sequence (P34995 whole entry): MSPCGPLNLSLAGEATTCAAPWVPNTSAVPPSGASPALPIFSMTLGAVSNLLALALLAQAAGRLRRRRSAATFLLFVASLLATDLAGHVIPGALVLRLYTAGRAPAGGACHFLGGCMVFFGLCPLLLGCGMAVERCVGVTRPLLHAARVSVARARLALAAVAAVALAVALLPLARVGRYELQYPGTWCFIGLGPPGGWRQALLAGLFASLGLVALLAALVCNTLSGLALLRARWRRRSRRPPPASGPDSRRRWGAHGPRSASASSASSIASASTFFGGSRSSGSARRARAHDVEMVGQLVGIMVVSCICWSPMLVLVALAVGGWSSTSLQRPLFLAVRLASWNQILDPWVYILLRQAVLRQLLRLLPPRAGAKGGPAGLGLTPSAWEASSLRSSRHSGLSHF
# Assay Notes: Displacement of [3H]PGE-2 from Prostaglandin E receptor EP1 expressed in CHO-KI cells
# Format: cell-based
Quantity Measured: pIC50
One number for each entry, as −log10 of the molar value.

[
  {
    "Structure Smiles": "Cc1ccccc1CC[C@H](O)CC[C@@H]1[C@@H](CCCCCCC(=O)O)[C@@H](O)C[C@H]1O",
    "Quantity Measured": "pIC50",
    "Meas Value": 5.00
  },
  {
    "Structure Smiles": "O=C(O)CCCCCC[C@@H]1[C@@H](CC[C@@H](O)CCc2ccc(F)cc2)[C@H](O)C[C@@H]1O",
    "Quantity Measured": "pIC50",
    "Meas Value": 5.46
  },
  {
    "Structure Smiles": "O=C(O)CCCCCC[C@@H]1[C@@H](CC[C@@H](O)CCc2cccc(F)c2)[C@H](O)C[C@@H]1O",
    "Quantity Measured": "pIC50",
    "Meas Value": 5.00
  }
]

Provide each entry's pIC50 from the list below.
1. O=C(O)CCCCCC[C@@H]1[C@@H](CC[C@@H](O)CCc2ccccc2F)[C@H](O)C[C@@H]1O
2. O=C(O)CCCCCC[C@@H]1[C@@H](CC[C@@H](O)CCc2ccccc2)[C@H](O)C[C@@H]1O

Reply:
1: 5.51; 2: 5.96

----------
# Target Entity: Prostaglandin E2 receptor EP1 subtype (Homo sapiens)
# Assay Notes: Functional activity in RAT-1cells, transiently-transfected with human Prostaglandin E receptor EP1 (% of control ligand, 17-phi-PGE2<20%)
pEC50: −log10 of the molar value.
Quantity Measured: pEC50

Query: Given CCCCC(C)(C)[C@H](O)CC[C@@H]1[C@@H](CCCCCCC(=O)O)[C@@H](O)C[C@H]1O , state its recorded pEC50.
Reply: < 4.70

Cited source: ChEMBL document CHEMBL1133030
